// MIC90 lookup, one value per entry
- Test system: E. coli ESBL+
- Assay Notes: In vitro MIC, 2010 surveillance isolates
- Format: cell-based, Escherichia coli
- Conditions: N America; N=134
Value Type: MIC90

[[record]]
compound = "CO/N=C(\\C(=O)N[C@@H]1C(=O)N2C(C(=O)[O-])=C(C[N+]3(C)CCCC3)CS[C@H]12)c1csc(N)n1 [Cefepime]"
measured_value = "> 16 µg/mL"

[[record]]
compound = "CO/N=C(\\C(=O)N[C@@H]1C(=O)N2C(C(=O)O)=C(CSc3nc(=O)c(=O)[nH]n3C)CS[C@H]12)c1csc(N)n1"
measured_value = "> 8 µg/mL"

[[record]]
compound = "NCC[C@H](O)C(=O)N[C@@H]1C[C@H](N)[C@@H](O[C@H]2O[C@H](CN)[C@@H](O)[C@H](O)[C@H]2O)[C@H](O)[C@H]1O[C@H]1O[C@H](CO)[C@@H](O)[C@H](N)[C@H]1O"
measured_value = "8 µg/mL"

[[record]]
compound = "C[C@H]1COc2c(N3CCN(C)CC3)c(F)cc3c(=O)c(C(=O)O)cn1c23"
measured_value = "> 4 µg/mL"

[[record]]
compound = "C[C@H]1c2cccc(O)c2C(=O)C2=C(O)[C@]3(O)C(=O)C(C(N)=O)=C(O)[C@@H](N(C)C)[C@@H]3[C@@H](O)[C@@H]21"
measured_value = "> 8 µg/mL"

